# System: IGROV1 complex spheroids (HUVEC, MSC), viability % test/control
# protocol-description: Anticancer human tumor IGROV1 cell line growth inhibition [GQUAD];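 also: spheroids exposed to compounds for 7 days before readout; 100% = DMSO vehicle control viability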
# condition-summary: second compound 0.1 µM; first compound 0.0999 µM; stronger effect = lower value
reported-endpoint: viability, T/C

Examples with answers:
molecule	reading
Cc1[nH]c2ccccc2c1CCNCc1ccc(/C=C/C(=O)NO)cc1 + Cc1[nH]c2ccc(F)cc2c1-c1nc2c3cccnc3c3ncccc3c2[nH]1	5.9%
Cc1[nH]c2ccccc2c1CCNCc1ccc(/C=C/C(=O)NO)cc1 + CN(C)c1ccc(Nc2c3ccc(NC(=O)CCN4CCCC4)cc3nc3cc(NC(=O)CCN4CCCC4)ccc23)cc1	3.89%
CCc1c2c(nc3ccc(O)cc13)-c1cc3c(c(=O)n1C2)COC(=O)[C@]3(O)CC + CN(C)c1ccc(Nc2c3ccc(NC(=O)CCN4CCCC4)cc3nc3cc(NC(=O)CCN4CCCC4)ccc23)cc1	5.38%
CCc1c2c(nc3ccc(O)cc13)-c1cc3c(c(=O)n1C2)COC(=O)[C@]3(O)CC + Cc1cnc(CNC(=O)c2c(=O)c3ccc(N4CCCN(C)CC4)nc3n3c2sc2ccccc23)cn1	4.92%

Here is the next item to consider.
Record CC[C@@]1(O)C(=O)OCc2c1cc1n(c2=O)Cc2cc3c(CN(C)C)c(O)ccc3nc2-1 + CN(C)c1ccc(Nc2c3ccc(NC(=O)CCN4CCCC4)cc3nc3cc(NC(=O)CCN4CCCC4)ccc23)cc1 . Reported viability, T/C: 13.5%

* * *

# Test system: IGROV1 complex spheroids (HUVEC, MSC), viability % test/control
# protocol-description: Anticancer human tumor IGROV1 cell line growth inhibition [GQUAD];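 also: spheroids exposed to compounds for 7 days before readout; 100% = DMSO vehicle control viability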
# condition-summary: second compound 0.316 µM; first compound 0.0999 µM; stronger effect = lower value
Here, each record is paired with measured viability, T/C data.
Hi! Could you send only the number? It should be in %, unit omitted.

compound	viability, T/C / %
Cn1ncnc1[C@H]1c2n[nH]c(=O)c3cc(F)cc(c23)N[C@@H]1c1ccc(F)cc1 + CN(C)c1ccc(Nc2c3ccc(NC(=O)CCN4CCCC4)cc3nc3cc(NC(=O)CCN4CCCC4)ccc23)cc1	61.5
Cc1[nH]c2ccccc2c1CCNCc1ccc(/C=C/C(=O)NO)cc1 + Cc1[nH]c2ccc(F)cc2c1-c1nc2c3cccnc3c3ncccc3c2[nH]1	5.96
CC[C@@]1(O)C(=O)OCc2c1cc1n(c2=O)Cc2cc3c(CN(C)C)c(O)ccc3nc2-1 + Cc1[nH]c2ccc(F)cc2c1-c1nc2c3cccnc3c3ncccc3c2[nH]1	9.45
CCc1c2c(nc3ccc(O)cc13)-c1cc3c(c(=O)n1C2)COC(=O)[C@]3(O)CC + Cc1[nH]c2ccc(F)cc2c1-c1nc2c3cccnc3c3ncccc3c2[nH]1	4.58
Cc1[nH]c2ccccc2c1CCNCc1ccc(/C=C/C(=O)NO)cc1 + CN(C)c1ccc(Nc2c3ccc(NC(=O)CCN4CCCC4)cc3nc3cc(NC(=O)CCN4CCCC4)ccc23)cc1	4.59

Looking up Cc1[nH]c2ccccc2c1CCNCc1ccc(/C=C/C(=O)NO)cc1 + Cc1cnc(CNC(=O)c2c(=O)c3ccc(N4CCCN(C)CC4)nc3n3c2sc2ccccc23)cn1 , I found its viability, T/C recorded as 3.3

// sample CCc1c2c(nc3ccc(O)cc13)-c1cc3c(c(=O)n1C2)COC(=O)[C@]3(O)CC + Cc1cnc(CNC(=O)c2c(=O)c3ccc(N4CCCN(C)CC4)nc3n3c2sc2ccccc23)cn1 , its viability, T/C was 6.74

Item: Cn1ncnc1[C@H]1c2n[nH]c(=O)c3cc(F)cc(c23)N[C@@H]1c1ccc(F)cc1 + Cc1[nH]c2ccc(F)cc2c1-c1nc2c3cccnc3c3ncccc3c2[nH]1 | viability, T/C: 46.5

Notebook: CCc1c2c(nc3ccc(O)cc13)-c1cc3c(c(=O)n1C2)COC(=O)[C@]3(O)CC + CN(C)c1ccc(Nc2c3ccc(NC(=O)CCN4CCCC4)cc3nc3cc(NC(=O)CCN4CCCC4)ccc23)cc1 , viability, T/C read as 3.87

Given item CC[C@@]1(O)C(=O)OCc2c1cc1n(c2=O)Cc2cc3c(CN(C)C)c(O)ccc3nc2-1 + Cc1cnc(CNC(=O)c2c(=O)c3ccc(N4CCCN(C)CC4)nc3n3c2sc2ccccc23)cn1 , the value recorded as its viability, T/C is 11.9

Kindly note the recorded viability, T/C for CC[C@@]1(O)C(=O)OCc2c1cc1n(c2=O)Cc2cc3c(CN(C)C)c(O)ccc3nc2-1 + CN(C)c1ccc(Nc2c3ccc(NC(=O)CCN4CCCC4)cc3nc3cc(NC(=O)CCN4CCCC4)ccc23)cc1 , which is 12.4

Looking up Cn1ncnc1[C@H]1c2n[nH]c(=O)c3cc(F)cc(c23)N[C@@H]1c1ccc(F)cc1 + Cc1cnc(CNC(=O)c2c(=O)c3ccc(N4CCCN(C)CC4)nc3n3c2sc2ccccc23)cn1 , I found its viability, T/C recorded as 16.5

* * *

# System: IGROV1 complex spheroids (HUVEC, MSC), viability % test/control
# protocol-description: Anticancer human tumor IGROV1 cell line growth inhibition [GQUAD];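 also: spheroids exposed to compounds for 7 days before readout; 100% = DMSO vehicle control viability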
# condition-summary: second compound 3.16 µM; first compound 3.16 µM; stronger effect = lower value
reported-endpoint: viability, T/C (%)
Please give a number only; it is taken to be in %.

These solved cases illustrate the format of a correct answer.
molecule	viability, T/C (%)
C#Cc1c(F)ccc2cc(O)cc(-c3ncc4c(N5CC6CCC(C5)N6)nc(OCC56CCCN5CC(F)C6)nc4c3F)c12 (stereo not given) + CN(C)c1ccc(Nc2c3ccc(NC(=O)CCN4CCCC4)cc3nc3cc(NC(=O)CCN4CCCC4)ccc23)cc1	66.2
CC(C)n1c(=O)n(C)c2cnc3cc(F)c(-c4ccc(OCCCN5CCCCC5)nc4)cc3c21 + CN(C)c1ccc(Nc2c3ccc(NC(=O)CCN4CCCC4)cc3nc3cc(NC(=O)CCN4CCCC4)ccc23)cc1	19.8
CCCS(=O)(=O)Nc1ccc(F)c(C(=O)c2c[nH]c3ncc(-c4ccc(Cl)cc4)cc23)c1F + Cc1cnc(CNC(=O)c2c(=O)c3ccc(N4CCCN(C)CC4)nc3n3c2sc2ccccc23)cn1	9.32
O=C(c1cc(Cc2n[nH]c(=O)c3ccccc23)ccc1F)N1CCN(C(=O)C2CC2)CC1 + CN(C)c1ccc(Nc2c3ccc(NC(=O)CCN4CCCC4)cc3nc3cc(NC(=O)CCN4CCCC4)ccc23)cc1	49.9

Then this molecule:
Just so you know, measured viability, T/C for COc1ccc([C@@H](O)c2cc(-c3ncnc4cc(N5CCOCC5)ccc34)c(F)cc2Cl)nn1 + Cc1[nH]c2ccc(F)cc2c1-c1nc2c3cccnc3c3ncccc3c2[nH]1 came out at 3.87

* * *

# System: IGROV1 complex spheroids (HUVEC, MSC), viability % test/control
# protocol-description: Anticancer human tumor IGROV1 cell line growth inhibition [GQUAD];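 also: spheroids exposed to compounds for 7 days before readout; 100% = DMSO vehicle control viability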
# condition-summary: second compound 1 µM; first compound 0.316 µM; stronger effect = lower value
Binary call on viability, T/C with cut-off 20%: strictly below means label 1, and equality or higher means label 0.

Completed entries (count: 4):
molecule	group
C#Cc1c(F)ccc2cc(O)cc(-c3ncc4c(N5CC6CCC(C5)N6)nc(OCC56CCCN5CC(F)C6)nc4c3F)c12 (stereo unspecified) + Cc1[nH]c2ccc(F)cc2c1-c1nc2c3cccnc3c3ncccc3c2[nH]1	label 1
CC1COCCN1c1cc(C2(O)CC3CCC(C2)O3)c2cnn(-c3ccn[nH]3)c2n1 (stereo unspecified) + Cc1cnc(CNC(=O)c2c(=O)c3ccc(N4CCCN(C)CC4)nc3n3c2sc2ccccc23)cn1	label 1
Cn1ncnc1[C@H]1c2n[nH]c(=O)c3cc(F)cc(c23)N[C@@H]1c1ccc(F)cc1 + Cc1cnc(CNC(=O)c2c(=O)c3ccc(N4CCCN(C)CC4)nc3n3c2sc2ccccc23)cn1	label 1
COc1ncnc(C2CC2)c1-c1ncc2cnn(Cc3ccc(-c4nc(C(F)(F)F)cn4C(C)C)cc3)c2n1 + Cc1[nH]c2ccc(F)cc2c1-c1nc2c3cccnc3c3ncccc3c2[nH]1	label 1

Request: Does Cc1cccc(N(C)C(=O)C2C(O)CCN2c2nc(C)cc(C(F)(F)F)c2C#N)c1 (stereo unspecified) + Cc1[nH]c2ccc(F)cc2c1-c1nc2c3cccnc3c3ncccc3c2[nH]1 have viability, T/C strictly under 20%?
Result: label 1

Request: viability, T/C under 20%? Item: C=CCn1c(=O)c2cnc(Nc3ccc(N4CCN(C)CC4)cc3)nc2n1-c1cccc(C(C)(C)O)n1 + CN(C)c1ccc(Nc2c3ccc(NC(=O)CCN4CCCC4)cc3nc3cc(NC(=O)CCN4CCCC4)ccc23)cc1
Result: label 1

Request: Record Cc1[nH]c2ccccc2c1CCNCc1ccc(/C=C/C(=O)NO)cc1 + CN(C)c1ccc(Nc2c3ccc(NC(=O)CCN4CCCC4)cc3nc3cc(NC(=O)CCN4CCCC4)ccc23)cc1 : is its viability, T/C strictly below 20%?
Result: label 1
